normalized growth values by entry
Assay: chemical genetic growth profiling, strain panel (AID 1159580);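 note: tested at 20 µM; growth read once vehicle control cultures reached saturation at 30 °C; 1 = growth at the plate median or of vehicle wells; lower values mean less growth of the strain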
Conditions: S. cerevisiae deletion strains, growth OD, locus YMR231W, strain pep5, active compounds read low
Out of some 5,500 compounds screened, about 2,000 (36%) were called active. Not shown: some 18% with an inconclusive outcome. The list shows a part of the results.
value.kind: normalized growth

compound=CC(=O)N[C@@H](CC(=O)O)C(=O)O value_kind="normalized growth" reading=1
compound="CC(=O)O[C@@H]1CC2C(C)(C)[C@H](O)C[C@H](O)[C@]2(C)C2CC[C@@]3(C)C(=CC(=O)O[C@H]3c3ccoc3)[C@@]21C (some centres not stated)" value_kind="normalized growth" reading=1
compound=O=C(O)c1cccc(O)c1O value_kind="normalized growth" reading=1.02
compound=COc1cc(O)c(C)c(O)c1 value_kind="normalized growth" reading=1.02
compound="CCCC(=O)Nc1ncnc2c1ncn2C1O[C@@H]2COP(=O)(O)O[C@H]2[C@H]1OC(=O)CCC (some centres not stated)" value_kind="normalized growth" reading=0.988
compound=COc1ccc2[nH]cc(CCNC(C)=O)c2c1 value_kind="normalized growth" reading=0.957
compound=CC(C)=CCOc1cc2oc(=O)ccc2cc1O value_kind="normalized growth" reading=0.929

====

Experiment: chemical genetic growth profiling, strain panel (AID 1159580);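 note: tested at 20 µM; growth read once vehicle control cultures reached saturation at 30 °C; 1 = growth at the plate median or of vehicle wells; lower values mean less growth of the strain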
Details: S. cerevisiae deletion strains, growth OD, locus YIL066C, strain RNR3, active compounds read low
Hit rate of the full screen: of about 5,500 compounds, about 2,000 (36%) were called active. Not shown: some 18% with an inconclusive outcome. The list shows a part of the results.
Measured normalized growth by item
value.kind: normalized growth

compound=CC1(C)C[C@@H]2C(=O)CC[C@H]3O[C@]3(C)CC[C@H]21 value_kind="normalized growth" reading=1
compound=COP(=S)(OC)SCn1nnc2ccccc2c1=O value_kind="normalized growth" reading=0.935
compound="CCOc1nc2cccc(C(=O)OC(C)OC(=O)OC3CCCCC3)c2n1Cc1ccc(-c2ccccc2-c2nn[nH]n2)cc1 (stereo not drawn)" value_kind="normalized growth" reading=1.01
compound=COc1cc(O)c(C(=O)c2ccccc2)c(OC)c1 value_kind="normalized growth" reading=0.938
compound="COc1cc(OC)c2c(c1Cl)OC1(C2=O)C(O)=CC(=O)CC1C (stereo not drawn)" value_kind="normalized growth" reading=1.07
compound="CC(=O)OC1CCC2C3CCc4cc(O)ccc4C3CCC12C (stereo not drawn)" value_kind="normalized growth" reading=0.962
compound=O=[N+]([O-])/N=C1/NCCN1Cc1ccc(Cl)cc1 value_kind="normalized growth" reading=0.985
compound=c1ccc2c(c1)[nH]c1cnccc12 value_kind="normalized growth" reading=1.01
compound="C[C@]12CCC3c4ccc(O)cc4CCC3C1CC[C@@H]2OC(=O)CCC1CCCC1 (stereo partly drawn)" value_kind="normalized growth" reading=0.977
compound=O=C1c2ccc(O)c(O)c2C(=O)c2c(O)ccc(O)c21 value_kind="normalized growth" reading=1.03
compound=Cc1ncc([N+](=O)[O-])n1CCO value_kind="normalized growth" reading=0.97
compound="C[C@]12CCC3C(CC[C@H]4CC(=O)CC[C@]34C)C1CCC2=O (stereo partly drawn)" value_kind="normalized growth" reading=0.795
compound="Cn1nnnc1SCC1=C(C(=O)O)N2C(=O)C(NC(=O)C(OC=O)c3ccccc3)C2SC1 (stereo not drawn)" value_kind="normalized growth" reading=1
compound="CC(C)CCCC(C)C1CCC2C3CCC4CC(=O)CCC4(C)C3CCC12C (stereo not drawn)" value_kind="normalized growth" reading=1.05
compound=COc1ccc2c(=O)c(-c3cc4c(cc3OC)OCO4)coc2c1 value_kind="normalized growth" reading=1.02
compound=COc1c(O)cc(O)cc1O value_kind="normalized growth" reading=1
compound=Cc1cc(O)c2c(c1O)C(=O)c1c(O)cc(C)c(O)c1C2=O value_kind="normalized growth" reading=0.939
compound=O=C1c2ccccc2C(=O)c2c1ccc(O)c2O value_kind="normalized growth" reading=0.174

====

Experiment: chemical genetic growth profiling, strain panel (AID 1159580);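 note: tested at 20 µM; growth read once vehicle control cultures reached saturation at 30 °C; 1 = growth at the plate median or of vehicle wells; lower values mean less growth of the strain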
Settings: S. cerevisiae deletion strains, growth OD, locus YOR106W, strain vam3
In all, about 5,500 compounds went through this assay and about 2,000 (36%) were called active. Roughly 18% stayed inconclusive and do not appear here. No stated cut-off is given here; in the data, active means normalized growth mostly below about 0.91 (no sharp cut-off); inconclusive means no clear call, values can overlap the other calls; inactive means mostly above about 0.92. The list shows a part of the results.
Outcome codes: t = active, f = inactive

compound="C[C@]12C=CC(=O)C=C1CCC1C2C(=O)C[C@@]2(C)C1CC[C@]2(O)C(=O)CO (stereo partly drawn)" class_label=f
compound=COc1cc(OC)c(C(C)=O)c(O)c1C class_label=f
compound="COc1cc(OC)c2c(c1Cl)OC1(C2=O)C(O)=CC(=O)CC1C (stereo not drawn)" class_label=f
compound="CC(=O)Oc1ccc2c(c1)CCC1C2CCC2(C)C1CC(OC(C)=O)C2OC(C)=O (stereo not drawn)" class_label=f
compound=O=C(CCCN1CC=C(n2c(=O)[nH]c3ccccc32)CC1)c1ccc(F)cc1 class_label=f
compound=O=c1c(-c2ccc3c(c2)OCO3)coc2cc(O)ccc12 class_label=f
compound=CCOc1ccc(Cc2nccc3cc(OCC)c(OCC)cc23)cc1OCC class_label=f
compound=COc1ccc2c(=O)c(CC(=O)O)coc2c1 class_label=f
compound="CC(=O)OC1CCC23C(=O)OC45CCC(C6=CC(=O)OC6)C4(C)CCC2C5CCC3(O)C1 (stereo not drawn)" class_label=f
compound="CC(=O)OC1CCC2C3CCc4cc(O)ccc4C3CCC12C (stereo not drawn)" class_label=f
compound="CC(C)CCCC(C)[C@H]1CCC2C3CC[C@H]4CC(=O)CC[C@]4(C)C3CC[C@@]21C (stereo partly drawn)" class_label=f
compound=O=c1cc(-c2ccc(O)cc2)oc2cc(O[C@@H]3O[C@H](CO)[C@@H](O)[C@H](O)[C@H]3O[C@@H]3OC[C@](O)(CO)[C@H]3O)cc(O)c12 class_label=f
compound=Cn1c(=O)[nH]c(=O)c2[nH]cnc21 class_label=f
compound="OC[C@@H](O)C(O[C@@H]1O[C@H](CO)[C@H](O)[C@H](O)[C@H]1O)[C@H](O)[C@@H](O)CO (stereo partly drawn)" class_label=f
compound=O=C1c2ccccc2C(=O)c2c(O)c(O)cc(O)c21 class_label=t
compound=c1ccc2c(c1)[nH]c1cnccc12 class_label=f
compound="C[C@]12CCC3C(CC[C@H]4CC(=O)CC[C@]34C)C1CCC2=O (stereo partly drawn)" class_label=t
compound=c1coc(CNc2ncnc3nc[nH]c23)c1 class_label=f
compound=COc1cc(OC)c2c(=O)c(-c3ccc4c(c3)OCO4)coc2c1 class_label=f
compound=COc1cc2c(cc1-c1coc3c4c(c(OC)cc3c1=O)OC(C)(C)C=C4)OCO2 class_label=f
compound=Cc1nccc2c1[nH]c1ccccc12 class_label=f
compound=CC1(C)S[C@@H]2[C@H](NC(=O)COc3ccccc3)C(=O)N2[C@H]1C(=O)O class_label=f
compound=C[C@H]1C(=O)O[C@@H]2CCN3CC=C(COC(=O)[C@](C)(O)[C@]1(C)O)[C@H]23 class_label=f
compound=O=c1ccc2ccc(O)c(O)c2o1 class_label=f
compound=O=c1[nH]c2ccccc2n1CCCN1CCC(n2c(=O)[nH]c3cc(Cl)ccc32)CC1 class_label=f
compound=COc1cc(O)c(C(C)=O)c(OC)c1 class_label=f
compound=N#C/C(=C\c1ccc(O)cc1)C(=O)O class_label=f
compound=COc1cc(O)c(C)c(O)c1 class_label=f
compound=CC(C)=CCc1c(O)cc2occ(-c3ccc4c(c3)OCO4)c(=O)c2c1O class_label=f
compound="CCCCC(=O)O[C@H]1CCC2C3CCc4cc(O)ccc4C3CC[C@@]21C (stereo partly drawn)" class_label=f
compound="CCC(=O)O[C@H]1CCC2C3CCc4cc(O)ccc4C3CC[C@@]21C (stereo partly drawn)" class_label=f
compound=Cc1cccc(N(C)C(=S)Oc2ccc3ccccc3c2)c1 class_label=f
compound=CN1CCN(CCCN2c3ccccc3Sc3ccc(Cl)cc32)CC1 class_label=t
compound=O=c1[nH]c2ccccc2n1C1CCN(CCCC(c2ccc(F)cc2)c2ccc(F)cc2)CC1 class_label=f
compound=COc1ccc(Cc2nccc3cc(OC)c(OC)cc23)cc1OC class_label=f
compound=CC(C)=CCOc1c2occc2cc2ccc(=O)oc12 class_label=f
compound="CC(=O)Oc1ccc2c(c1)CCC1C2CC[C@@]2(C)C1CC[C@@H]2OC(C)=O (stereo partly drawn)" class_label=f
compound=CC(C)=CCC/C(C)=C/COc1ccc2ccc(=O)oc2c1 class_label=f

====

Test: chemical genetic growth profiling, strain panel (AID 1159580);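 note: tested at 20 µM; growth read once vehicle control cultures reached saturation at 30 °C; 1 = growth at the plate median or of vehicle wells; lower values mean less growth of the strain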
Conditions: S. cerevisiae deletion strains, growth OD, locus YNL209W, strain ssb2, active compounds read low
In all, about 5,500 compounds went through this assay and about 2,000 (36%) were called active. Not shown: some 18% with an inconclusive outcome. Some of the results follow.
Items are presented alongside their recorded normalized growth.
value.kind: normalized growth

molecular_string=c1coc(CNc2ncnc3nc[nH]c23)c1 value_kind="normalized growth" reading=0.986
molecular_string=CC(C)=CCOc1c2occc2cc2ccc(=O)oc12 value_kind="normalized growth" reading=0.936
molecular_string=Nc1ncnc2nc[nH]c12 value_kind="normalized growth" reading=0.984
molecular_string=Cc1ncc([N+](=O)[O-])n1CCO value_kind="normalized growth" reading=0.974
molecular_string=COc1cc2ccc(=O)oc2cc1O value_kind="normalized growth" reading=0.968
molecular_string=Cn1c([N+](=O)[O-])cnc1COC(N)=O value_kind="normalized growth" reading=1.01
